Test system: HTT mRNA
measurement protocol: Splicing RT-qPCR assay (THP), Table 2A
Type: cell-based
reported conditions: Table 2A (THP), CJ mRNA decrease, read-out: HTT CJ (decrease in canonical junction mRNA, IC50)
Provide the reported IC50 of each item.

As a guide, the following entries are already answered.
Cc1cn2cc(NC(=O)c3c(F)cc(N4CC5(CNC5)C4)c4cn(C)nc34)nc2c(C)n1 : 100 to 1000 nM
Cc1cn2cc(NC(=O)c3ccc(N4CC[C@H]5CNCC[C@H]54)c4cn(C)nc34)nc2c(C)n1 (stereo in doubt) : 100 to 1000 nM
COc1cc2nn(C)cc2cc1NC(=O)c1ccc(N2CCC3(CCCN3)CC2)c2cn(C)nc12 : 100 to 1000 nM

Below: the item to evaluate.
Notebook entry, HTT mRNA assay: IC50 of COc1cc2nn(C)cc2cc1NC(=O)c1ccc(N2CCC(NC3CC3)CC2)c2cn(C)nc12 = ?
1000 to 10000 nM

###

Tested on: MYB mRNA
measurement protocol: Gene panel canonical junction qPCR assay, decrease in CJ mRNA, Table 3
Format: cell-based
reported conditions: decrease in canonical junction (CJ) mRNA, gene panel qPCR, Table 3
Method: Compounds described herein were used to modulate RNA transcript abundance in cells. The expression of a target mRNA was measured by detecting the formation of an exon-exon junction in the canonical transcript (CJ). A compound mediated exon-inclusion event was detected by observing an increase in formation of a new junction with an alternative exon (AJ). Real-time qPCR assays were used to detect these splicing switches and interrogate the potency of various compounds towards different target genes. […]
pIC50: −log10 of the molar value.
property: pIC50

As a guide, the following entries are already answered.
CCNC1CCN(c2ccc(C(=O)Nc3cn(C)c(=O)cc3OC)c3nn(C)cc23)CC1 : 5.00 to 6.00
Cc1cn2cc(NC(=O)c3ccc(N4CC(C5CNC5)C4)c4cn(C)nc34)nc2c(C)n1 : < 5.00
CNC1(C)CCN(c2cc(F)c(C(=O)Nc3cc(F)c4nc(C)cn4c3)c3nn(C)cc23)CC1 : > 7.00
CCNC1CCN(c2ccc(C(=O)Nc3cc(Oc4ccccc4C)c4nc(C)cn4c3)c3nn(C)cc23)CC1 : 5.00 to 6.00

// each listed molecule needs a value for pIC50
1. Cc1cn2cc(NC(=O)c3ccc(N4CC5(CNCCO5)C4)c4cn(C)nc34)nc2c(C)n1
2. COc1c(NC(=O)c2c(F)cc(N3CC[C@@H](NC4CC4)C4(CC4)C3)c3cn(C)nc23)cn2cc(C)nc2c1F
3. CCNC1CCN(c2ccc(C(=O)Nc3cn4cc(C)nc(C)c4n3)c3nn(C)cc23)CC1
4. CCNC1CCN(c2ccc(C(=O)Nc3cn4cc(C)nc4c(F)c3OC)c3[nH]ccc23)CC1

< 5.00
> 7.00
6.00 to 7.00
5.00 to 6.00

###

System: HTT mRNA
measurement protocol: Splicing RT-qPCR assay (THP), Table 2A
Type: cell-based
reported conditions: Table 2A (THP), CJ mRNA decrease, read-out: HTT CJ (decrease in canonical junction mRNA, IC50)
pIC50: −log10 of the molar value. Where a name gives a salt, the structure may show the parent alone.
property: pIC50

Cc1cn2cc(NC(=O)c3c(F)cc(N4CCC(NC5CC5)CC4)c4cn(C)nc34)c(Oc3ccccc3)c(F)c2n1 [Compound 377] : > 7.00
Cc1cn2cc(NC(=O)c3ccc(N4CC5CNCC5C4)c4cn(C)nc34)nc2c(C)n1 (stereo not drawn) [Compound 526] : 5.00 to 6.00
Cc1cn2cc(NC(=O)c3c(F)cc(N4CCC(NC5CC5)CC4)c4cn(C)nc34)cc(Oc3ccccn3)c2n1 [Compound 399] : 5.00 to 6.00
CC1OB(O)c2ccc(NC(=O)c3c(F)cc(N4CCC(NC5CC5)CC4)c4cn(C)nc34)cc21 (stereo not drawn) [Compound 558, hydrochloride] : < 5.00

// each listed compound needs a value for pIC50
1. Cc1cn2cc(NC(=O)c3ccc(N4CCNC(C(F)(F)F)C4)c4cn(C)nc34)cc(F)c2n1 (stereo not drawn) [Compound 248]
2. CCNC1CCN(c2ccc(C(=O)Nc3cc(F)c4nc(C(C)C)cn4c3)c3nn(C)cc23)CC1 [Compound 177]

1. < 5.00
2. < 5.00

###

Provide the reported pIC50 of each item.
System: HTT mRNA
measurement protocol: Splicing RT-qPCR assay (THP), Table 2A
Assay type: cell-based
reported conditions: Table 2A (THP), CJ mRNA decrease, read-out: HTT CJ (decrease in canonical junction mRNA, IC50)
pIC50: −log10 of the molar value. Counter-ions that a name gives are not always drawn.

Cc1cn2cc(NC(=O)c3ccc(N4CCC(NC5CC5)CC4)c4cn(C)nc34)nc2c(C)n1 [Compound 297] : < 5.00
Cn1cc2c(N3CCC(NC4CC4)CC3)cc(F)c(C(=O)Nc3cc4cn(C)nc4n(C)c3=O)c2n1 [Compound 426] : 5.00 to 6.00
CCNC1CCN(c2cc(F)c(C(=O)Nc3cn4cc(C)nc4c(F)c3OCC)c3nn(C)cc23)CC1 [Compound 343, hydrochloride] : > 7.00
COc1c(NC(=O)c2c(F)cc(N3CCS(=N)(=O)CC3)c3cn(C)nc23)cn2cc(C)nc2c1F [Compound 330] : < 5.00
Cc1cn2cc(NC(=O)c3ccc(N4CCC5(CCCN5)CC4)c4cn(C)nc34)nc2c(C)n1 [Compound 529] : < 5.00
COc1cc2nn(C)cc2cc1NC(=O)c1ccc(N2CCC3NCC3C2)c2cn(C)nc12 (stereo not drawn) [Compound 542] : < 5.00
CCNC1CCN(c2ccc(C(=O)Nc3cc(OC)c4nc(C)sc4c3)c3nn(C)cc23)CC1 [Compound 385, 2,2,2-trifluoroacetate] : < 5.00
Cc1nc(C)c2nc(NC(=O)c3ccc(N4CCC(NC5CC5)CC4)c4cn(C)nc34)cn2c1C [Compound 495] : 6.00 to 7.00
CN[C@H]1CCN(c2ccc(C(=O)Nc3cc(F)c4nc(C)cn4c3)c3nnn(C)c23)C1 [Compound 166] : < 5.00
COc1cc2nn(C)cc2cc1NC(=O)c1c(C)cc(N2CCC(NC3CC3)CC2)c2cn(C)nc12 [Compound 472] : < 5.00

// each listed compound needs a value for pIC50
1. Cc1cn2cc(NC(=O)c3ccc(N4CCNC(C)C4)c4cn(C)nc34)nc2c(C)n1 (stereo not drawn) [Compound 557]
2. COc1cc(NC(=O)c2c(F)cc(N3CCC(NC4CC4)CC3)c3cn(C)nc23)cc2cn(C)nc12 [Compound 423]
3. CCN[C@@H]1CCN(c2cc(O)c(C(=O)Nc3cc(F)c4nc(C)cn4c3)c3nn(C)cc23)C1 [Compound 144]
4. CCNC1CCN(c2ccc(C(=O)Nc3cc(OC)c4nc(C)cn4c3)c3nn(C)cc23)CC1 [Compound 175]
5. COc1cc(N2CCNCC2)c2cn(C)nc2c1C(=O)Nc1cc(F)c2nc(C)cn2c1 [Compound 250]

1. < 5.00
2. 5.00 to 6.00
3. < 5.00
4. 5.00 to 6.00
5. < 5.00

###

Test system: MYB mRNA
measurement protocol: Gene panel canonical junction qPCR assay, decrease in CJ mRNA, Table 3
Format: cell-based
reported conditions: decrease in canonical junction (CJ) mRNA, gene panel qPCR, Table 3
pIC50: −log10 of the molar value.
Provide the reported pIC50 of each item.

As a guide, the following entries are already answered.
CNCC1CCCN(c2ccc(C(=O)Nc3cc4cn(C)nc4cc3OC)c3nn(C)cc23)C1 (centres unmarked) [Compound 545] : 5.00 to 6.00
CCN[C@H]1CCN(c2cc(OC)c(C(=O)Nc3cc(F)c4nc(C)cn4c3)c3nn(C)cc23)C1 [Compound 146] : < 5.00
COCCN[C@H]1CCN(c2ccc(C(=O)Nc3cc(F)c4nc(C)cn4c3)c3nn(C)cc23)C1 [Compound 112] : 6.00 to 7.00
COc1c(NC(=O)c2ccc(N3CCC(NC4CC4)CC3)c3cn(C)nc23)cc2cn(C)nc2c1Cl [Compound 461] : 6.00 to 7.00
Cn1cc2cc(NC(=O)c3c(F)cc(N4CCC(NC5CC5)CC4)c4cn(C)nc34)c(F)cc2n1 [Compound 422] : > 7.00
Cc1cn2cc(C(=O)Nc3c(F)cc(N4CCNCC4)c4cn[nH]c34)cc(F)c2n1 [Compound 267] : < 5.00
CCNC1CCN(c2cc(F)c(C(=O)Nc3cc(F)c4cn(C)nc4c3)c3nn(C)cc23)CC1 [Compound 300] : < 5.00

Below: the item to evaluate.
Report pIC50 for COc1cc2nn(C)cc2cc1NC(=O)c1c(F)cc(NCC2CCNCC2)c2cn(C)nc12 [Compound 454] please.
< 5.00
